target: T1, human CD8 on human T cells (human, UniProt P01732 22-235); experiment: flow cytometry on human CD8+ T cells, titration, apparent KD
T1 construct: whole, on cells; the antibodies were raised against human CD8 alpha; also called CD8 on human CD8+ T cells; hCD8
T1 sequence (P01732 22-235): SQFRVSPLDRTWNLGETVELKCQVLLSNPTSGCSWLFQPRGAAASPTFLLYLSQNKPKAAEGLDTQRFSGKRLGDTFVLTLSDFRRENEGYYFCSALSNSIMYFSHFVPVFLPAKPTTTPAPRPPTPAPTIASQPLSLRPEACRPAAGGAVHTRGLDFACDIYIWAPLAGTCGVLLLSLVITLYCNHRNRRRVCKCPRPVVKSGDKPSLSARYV
Reported pKd values follow for various binders
Note on pKd: it is the negative log10 of concentration, concentration in mol/L.

Known results for binders:
>  <binder>
humanized 03A01-VH2-VK2 (antibody, human IgG1, V domains shown, human IgG1 format; also called 03-VH2/VK2) VH: EVQFQESGPGLVKPSQTLSLTCTVSGYSITSDFAWNWIRQPPGKGLEWMGYISYSGDTNYNPSLRSRITISRDTSKNQFSLKLSSVTAADTAVYYCTIRGYYTDSAFVFWGQGTLVTVSS VL: DIQMTQSPSTLSVSVGDRVTITCKASDHINNWLAWYQQKPGKAPKLLISGATSLETGVPSRFSGSGSGLEYTLTISSLQPDDFATYYCQQYWNSPFTFGQGTKLEIK

>  <pKd>
8.74

$$$$
>  <binder>
Murine 03A01 (antibody, V domains shown, Recombinantly produced IgG; also called 03-parental; 03-Parent) VH: DVQFQESGPGLVKPSQSLSLTCTVTGYSITSDFAWNWIRQFPGNELEWMGYISYSGDTNYNPSLRSRISITRDTSKNQFFLQLDSVTTEDTATYYCTIRGYYTDSAFVFWGQGTLVTVSA VL: DIQMTQSSSYLSVSLGGRVTITCKASDHINNWLAWYQQKPGNAPRLLISGATSLETGVPSRFTGSGSGLDYTLSITSLQTEDVATYYCQQYWNSPFTFGSGTKLEIK

>  <pKd>
9.03

$$$$

From here, focus on the item given below.
QUERY: Need pKd, item humanized 03A01-VH1-VK3 (antibody, human IgG1, V domains shown, human IgG1 format; also called 03-VH1/VK3) VH: EVQFQESGPGLVKPSQTLSLTCTVTGYSITSDFAWNWIRQPPGKELEWMGYISYSGDTNYNPSLRSRITISRDTSKNQFSLKLSSVTAADTATYYCTIRGYYTDSAFVFWGQGTLVTVSS VL: DIQMTQSPSTLSASVGDRVTITCKASDHINNWLAWYQQKPGKAPKLLISGATSLETGVPSRFSGSGSGLEYTLTISSLQPDDFATYYCQQYWNSPFTFGQGTKLEIK
RESULT: 8.80
